Tested on: Pseudomonas aeruginosa ATCC 27853
Test: Standard EPI assay: MIC of test antibiotic in absence and presence of EPI
Type: cell-based
Details: ceftazidime with compound at 6.25 μg/mL, relative to MIC without EPI (2 μg/mL)
REPORTED PROPERTY: Enhanced Antibiotic's Activity (fold increase), Ceftazidime
Please format your answer as a value with the unit trailing.

Here's what some known entries look like.
| COMPOUND | REPORTED MEASUREMENT |
| --- | --- |
| NCC(O)C[C@H](N)CNC(=O)c1[nH]c2ccccc2c1C1CCCCC1 (stereo partly drawn) | 4 fold |
| NC[C@H]1CN[C@H](CNC(=O)c2[nH]c3ccccc3c2-c2ccc(F)cc2)C1=O | 1 fold |
| N#Cc1ccc(-c2c(C(=O)NC[C@@H](N)CC(O)CN)[nH]c3ccccc23)cc1 (stereo partly drawn) | 1 fold |

// below: Enhanced Antibiotic's Activity (fold increase), Ceftazidime requested for another compound
// fetch Enhanced Antibiotic's Activity (fold increase), Ceftazidime given entry NCC(O)C[C@H](N)CNC(=O)c1[nH]c2ccccc2c1Sc1cccc(F)c1 (stereo partly drawn)
2 fold

###

As shown below, each of these compounds has a reported Enhanced Antibiotic's Activity (fold increase), Ceftazidime value.
System: Pseudomonas aeruginosa ATCC 27853
Assay: Standard EPI assay: MIC of test antibiotic in absence and presence of EPI
Assay type: cell-based
Settings: ceftazidime with compound at 6.25 μg/mL, relative to MIC without EPI (2 μg/mL)
Just the number please, in fold, no unit attached.

Here's what some known entries look like.
| COMPOUND | UNIT | REPORTED MEASUREMENT |
| --- | --- | --- |
| NCCC(O)[C@@H](N)CNC(=O)c1[nH]c2ccccc2c1-c1ccccc1F (some centres unmarked) [Example 7] | fold | 1 |
| NCCOC[C@H](N)CNC(=O)c1[nH]c2ccccc2c1-c1ccc(F)cc1 [Example 19] | fold | 2 |
| NCCC(O)[C@@H](N)CNC(=O)c1[nH]c2ccccc2c1C1CCC(F)(F)CC1 (some centres unmarked) [Example 6] | fold | 4 |
| N#Cc1ccc(-c2c(C(=O)NC[C@@H](N)COCCN)[nH]c3ccc(F)cc23)cc1 [Example 20] | fold | 2 |

Write Enhanced Antibiotic's Activity (fold increase), Ceftazidime of N#Cc1ccc(-c2c(C(=O)NC[C@@H](N)CC(O)CN)[nH]c3c(F)cccc23)cc1 (some centres unmarked) [Example 14] ; system used: Pseudomonas aeruginosa ATCC 27853
1

Write Enhanced Antibiotic's Activity (fold increase), Ceftazidime of NCC(O)[C@H](N)CNC(=O)c1[nH]c2ccccc2c1C1CCCC1 (some centres unmarked) [Example 36] ; system used: Pseudomonas aeruginosa ATCC 27853
2

Write Enhanced Antibiotic's Activity (fold increase), Ceftazidime of NCCOC[C@H](N)CNC(=O)c1[nH]c2ccccc2c1-c1ccccc1 [Example 21] ; system used: Pseudomonas aeruginosa ATCC 27853
1

Write Enhanced Antibiotic's Activity (fold increase), Ceftazidime of NCC[C@@H](O)[C@@H](N)CNC(=O)c1[nH]c2ccccc2c1-c1ccc(F)cc1 [Example 1] ; system used: Pseudomonas aeruginosa ATCC 27853
1

###

System: Pseudomonas aeruginosa ATCC 27853
Assay: Standard EPI assay: MIC of test antibiotic in absence and presence of EPI
Assay type: cell-based
Conditions: ceftazidime with compound at 6.25 μg/mL, relative to MIC without EPI (2 μg/mL)
REPORTED PROPERTY: Enhanced Antibiotic's Activity (fold increase), Ceftazidime (fold)
Just the number please, in fold, no unit attached.

Here's what some known entries look like.
| MOLECULE | REPORTED MEASUREMENT |
| --- | --- |
| NCC(O)C[C@H](N)CNC(=O)c1[nH]c2ccccc2c1-c1ccc(F)cc1 (some centres unmarked) [Example 10] | 4 |
| NCCOC[C@H](N)CNC(=O)c1cc2ccc(-c3ccc(F)cc3)cc2[nH]1 [Example 31] | 4 |
| NCC(O)C[C@H](N)CNC(=O)c1[nH]c2ccc(F)cc2c1-c1ccccc1Cl (some centres unmarked) [Example 8] | 2 |
| NCCC(O)[C@@H](N)CNC(=O)c1[nH]c2ccccc2c1C1CCCC1 (some centres unmarked) [Example 4] | 4 |
| NCC(O)C[C@H](N)CNC(=O)c1[nH]c2ccc(F)cc2c1-c1ccccc1 (some centres unmarked) [Example 13] | 2 |
| NCC(CO)C[C@@H](N)CNC(=O)c1[nH]c2ccccc2c1-c1ccc(F)cc1 (some centres unmarked) [Example 16] | 2 |

// fetch Enhanced Antibiotic's Activity (fold increase), Ceftazidime given entry NCC(O)C[C@H](N)CNC(=O)c1[nH]c2ccccc2c1-c1ccccc1 (some centres unmarked) [Example 12]
2

// fetch Enhanced Antibiotic's Activity (fold increase), Ceftazidime given entry NC[C@H]1CN[C@H](CNC(=O)c2[nH]c3ccccc3c2-c2ccc(F)cc2)[C@H]1O [Example 23]
2

// fetch Enhanced Antibiotic's Activity (fold increase), Ceftazidime given entry NCCC(O)[C@@H](N)CNC(=O)c1[nH]c2ccc(F)cc2c1C1CCCCC1 (some centres unmarked) [Example 5]
16

// fetch Enhanced Antibiotic's Activity (fold increase), Ceftazidime given entry NC[C@H]1CN[C@H](CNC(=O)c2[nH]c3ccccc3c2-c2ccc(F)cc2)[C@@H]1O [Example 26]
2

// fetch Enhanced Antibiotic's Activity (fold increase), Ceftazidime given entry N#Cc1ccc(-c2c(C(=O)NC[C@@H](N)CC(O)CN)[nH]c3ccc(F)cc23)cc1 (some centres unmarked) [Example 9]
2
